# Assay: NCI Yeast Anticancer Drug Screen. Data for the mec2-1 strain (AID 157)
# Experimental setup: S. cerevisiae mec2-1 strain, at 50.0 µM (retest, dose inferred, filed as 5.0), stronger effect = higher value
About 79,000 compounds went through this panel and 15% of them were active in at least one assay; those are over-represented in the sample as a whole. Active and inactive are the calls of the source. Rule as the data show it: active = growth inhibition above about 70%; inactive = the rest.
What growth inhibition was measured for each of the following?

Give growth inhibition for the following compound: `Cc1ccc(S(=O)(=O)NCCSS(=O)(=O)c2ccc(C)cc2)cc1`
96% (active)

Give growth inhibition for the following compound: `Oc1ccc(NCn2c(=S)sc3ccccc32)cc1`
100% (active)

Give growth inhibition for the following compound: `CCC/C(Cl)=N\OC(=O)Nc1cccc(C(F)(F)F)c1`
98% (active)

Give growth inhibition for the following compound: CC(=O)OCC(=O)C1(O)CCC2C3CCC4CCCCC4(C)C3CCC21C (configuration not stated)
84% (active)

Give growth inhibition for the following compound: `O=c1ssc2ncccc12`
96% (active)

Give growth inhibition for the following compound: `CCN(CC)[P+](c1ccccc1O)(N(CC)CC)N(CC)CC`
55% (inactive)

Give growth inhibition for the following compound: Cc1ccc(C2C(Cl)C(=O)N2n2cnc3ccccc3c2=O)cc1 (configuration not stated)
10% (inactive)

Give growth inhibition for the following compound: `CCCC/C=C/C(CC)(C(=O)OCC)C(=O)OCC`
43% (inactive)

Give growth inhibition for the following compound: `CC(=O)OCCOCNC(=S)N/N=C(\C)c1cnccn1`
44% (inactive)

Give growth inhibition for the following compound: CC(=O)OC1CCC2(C)C(=CCC3C4CCC5(OC6CC(C)CN(C(C)=O)C6C5C)C(C)=C4C(=O)C32)C1 (configuration not stated)
98% (active)

Give growth inhibition for the following compound: `CCCCOC(=O)N[C@H]1CCc2cc(OC)c(OC)c(OC)c2-c2ccc(SC)c(=O)cc21`
48% (inactive)

Give growth inhibition for the following compound: `CCOc1ccc2c(c1)c(CC(=O)O)cn2C`
3% (inactive)

Give growth inhibition for the following compound: O=C1OC(=O)C2CCCC3CCCC1C32 (configuration not stated)
99% (active)

Give growth inhibition for the following compound: CCCN(CCC)CC(O)c1cc(-c2ccc(Cl)cc2)nc2c(C)c(Cl)ccc12 (configuration not stated)
98% (active)

Give growth inhibition for the following compound: `COc1ccc(N=C2C(=O)Nc3ccc(Br)cc32)cc1`
61% (inactive)

Give growth inhibition for the following compound: `O=C1c2ccccc2-c2nc3ccccc3nc21`
98% (active)

Give growth inhibition for the following compound: `CCc1ccc(NS(=O)(=O)c2ccccc2)c([N+](=O)[O-])c1`
39% (inactive)

Give growth inhibition for the following compound: `c1ccc2c(c1)sc1cc3ccncc3cc12`
96% (active)

Give growth inhibition for the following compound: `COc1cccc2nc3ccccc3nc12`
17% (inactive)

Give growth inhibition for the following compound: `CCN(CC)CCN1C(=O)c2cccc3cc(OC)cc(c23)C1=O`
19% (inactive)

Give growth inhibition for the following compound: `CC1=NN(c2cccc(Cl)c2)C(=O)C1`
100% (active)

Give growth inhibition for the following compound: `OC1CSCCCSCCSCCCSC1`
5% (inactive)
